Reported CLpred Mouse values are given for each entry in this list.
protocol details: Intrinsic clearance (CLint) assay, mouse liver microsomes
Format: in vitro ADME
conditions used: predicted metabolic clearance
Non-standard residues stand in square brackets, D forms with d. Residues, ends and D or L forms follow the SMILES beside them. NMeL = CN[C@@H](CC(C)C)C(=O)O; NMeV = CN[C@H](C(=O)O)C(C)C; dOrn = NCCC[C@@H](N)C(=O)O
Respond numerically; units are mL/min/kg and should not be typed.

compound	CLpred Mouse [mL/min/kg]
COc1ccc(C[C@@H]2NC(=O)[C@@H](CCCN)NC(=O)[C@H](CC(N)=O)NC(=O)[C@H](C(C)C)NC(=O)[C@@H](CC(C)C)NC(=O)[C@H](CC(C)C)NC2=O)cc1 [Compound 15c] (cyclo(L[dL]VN[dOrn]Y(Me)))	30.20

CLpred Mouse recorded for this compound, CC(C)C[C@H]1NC(=O)[C@H](CC(C)C)N(C)C(=O)[C@H](Cc2c[nH]c3ccccc23)NC(=O)[C@@H](CCCN)NC(=O)[C@H](CC(N)=O)NC(=O)[C@H](C(C)C)N(C)C1=O [Compound 24c] (cyclo(N[dOrn]W[NMeL][dL][NMeV])) , is 52.90

* * *

protocol details: Intrinsic clearance (CLint) assay, mouse liver microsomes
Format: in vitro ADME
conditions used: predicted metabolic clearance
Non-standard residues stand in square brackets, D forms with d. Residues, ends and D or L forms follow the SMILES beside them. NMeV = CN[C@H](C(=O)O)C(C)C; dOrn = NCCC[C@@H](N)C(=O)O
parameter measured: CLpred Mouse

Some solved entries appear below for comparison.
compound	CLpred Mouse
CC(C)C[C@@H]1NC(=O)[C@H](Cc2c[nH]c3ccccc23)NC(=O)[C@@H](CCCN)NC(=O)[C@H](CC(N)=O)NC(=O)[C@H](C(C)C)N(C)C(=O)[C@@H](CC(C)C)NC1=O [Compound 22c] (cyclo(L[dL][NMeV]N[dOrn]W))	<1.23 L/h/kg
CC[C@H](C)[C@@H]1NC(=O)[C@H](Cc2c[nH]c3ccccc23)NC(=O)[C@@H](CCCN)NC(=O)[C@H](CC(N)=O)NC(=O)[C@H](C(C)C)NC(=O)[C@@H](CC(C)C)NC1=O [Compound 19c] (cyclo(I[dL]VN[dOrn]W))	<1.23 L/h/kg

CLpred Mouse recorded for this compound, CC[C@H](C)[C@@H]1NC(=O)[C@@H](CC(C)C)NC(=O)[C@H](CC(C)C)NC(=O)[C@H](Cc2c[nH]c3ccccc23)NC(=O)[C@@H](CCCN)NC(=O)[C@H](CC(N)=O)NC1=O [Compound 7c] (cyclo(IN[dOrn]WL[dL])) , is <1.23 L/h/kg
